Structures can show the parent of a compound that is named as a salt.

MOLECULE	UNITS OF MEASURE	melting point
COc1cc(-c2nc3ccccc3o2)ccc1-c1ccccn1 (as salt: hydrochloride)	°C	215
N#CCc1ccc(-c2nc3ccccc3o2)cc1[N+](=O)[O-]	°C	203

###

Each record here notes measured melting point.

COMPOUND	melting point
N#CCc1ccc(-c2nc3ccccc3o2)cc1-c1cccc(C#N)c1 [Example 4]	175 to 176 °C
N#CCc1ccc(-c2nc3ccccc3o2)cc1Br [Example 1]	190 to 191 °C
N#CCc1ccc(-c2nc3ccccc3o2)cc1N [Example 7]	198 to 199 °C
